tested on: P. falciparum stage V gametocytes; set-up: BacTiter-Glo ATP luminescence viability of purified stage V gametocytes in 384-well plates, per cent inhibition versus DMSO; conditions: 48 h, 5 µM; inhibitor
Screen size: about 13,000 compounds; about 3,200 (25%) showed an effect of 50% or more. The list shows a part of the results.
outcome measure: % Inhibition (%)
Give just the number in %; leave the unit off.

In: Entry `COc1cccc(CN2Cc3ccccc3OC3(CCN(Cc4c[nH]c5cnccc45)CC3)C2)c1` has what % Inhibition?
Out: 19.44

In: Consider the molecule shown here: O=C(Cc1ccsc1)NCC(c1ccccc1Cl)c1c[nH]c2ccccc12 (centres unmarked) What is its recorded % Inhibition?
Out: 11.67

In: So what's the measured % Inhibition for this one? `Cc1ccc2nc(C)n(C3CCN(C(=O)C4(c5ccccc5)CC4)CC3)c2c1`
Out: 44.07

In: # lookup: % Inhibition of CS(=O)(=O)c1ccc(CCNCc2ccc(-c3ccc(CN(C(=O)C4CC(=O)c5ccccc54)C4Cc5ccccc5C4)cc3)nc2)cc1 (centres unmarked)
Out: 97.27

In: Return reported % Inhibition; argument: `O=C(Nc1cccc(-c2nn3ncccc3c2-c2ccnc(Nc3cccc(C(F)(F)F)c3)n2)c1)c1c(F)cccc1F`
Out: -33.07

In: Consider the molecule `CCn1c(-c2nonc2N)nc2c(-c3ccccc3)ncc(OCCCCNCCc3ncc[nH]3)c21` and give its measured % Inhibition.
Out: 104.7

In: For `Cc1ccc2nc(C)n(C3CCN(C(=O)Cc4ccccc4C)CC3)c2c1` , what is its reported % Inhibition?
Out: 76.45

In: Name the reported % Inhibition value associated with the molecule CC(=O)N(C)C1CCN(Cc2cccc(-c3ccc(-c4nc5cc(F)ccc5[nH]4)cc3)c2)C1.O=C(O)C(F)(F)F (centres unmarked)
Out: 26.71

In: I have this molecule here, O=C(Cc1cccs1)NC(CCCN1CCC(Oc2cccc(Cl)c2)CC1)c1ccc(Cl)c(Cl)c1 (centres unmarked) , and I need its recorded % Inhibition.
Out: -47.46

In: Look at this molecule and give its reported % Inhibition. `O=C(Cc1ccc[n+]([O-])c1)Nc1cccc(-c2cccc(-c3nc4cc(F)ccc4[nH]3)c2)c1`
Out: -50

In: Find the recorded % Inhibition belonging to `COc1cc2c(Nc3cccc(NC(=O)c4ccccc4)c3)ncnc2cc1OCCCN1CCOCC1` and report it.
Out: 18.79

In: Quick check: % Inhibition of `Cc1cc2c(cc1C(F)(F)F)N(C(=O)Nc1cnc(OCCN(C)C)c(C(F)(F)F)c1)CC2` ?
Out: 26.2

In: GET /values?readout=% Inhibition&item= CCc1ccc(CN2CCC(CNC(=O)c3cc(-c4cccc(Cl)c4)cs3)C2)cc1 (centres unmarked)
Out: 86.46

In: Name the reported % Inhibition value associated with the molecule `CS(=O)(=O)c1ccc(CCNCc2ccc(-c3ccc(CNC4CCN(Cc5ccccc5)CC4)cc3)nc2)cc1`
Out: 33.12

In: Record request: % Inhibition value, item CC(C)(C)c1ccc(CN2CCC(CNC(=O)c3cc(-c4cccc(F)c4)cs3)C2)cc1 (centres unmarked)
Out: 110.8

In: Suppose we examine the molecule `CCc1c(C)nc(-n2nc(C)cc2NC(=O)C2c3ccccc3Oc3ccccc32)[nH]c1=O` ; what % Inhibition value has been reported?
Out: -24.15

In: Any idea what % Inhibition was measured for `O=C(O)/C=C/c1cccc(F)c1F` ?
Out: -5.397

In: Data request, read-out % Inhibition, for `CC(C)N1CCC(N(Cc2ccc(-c3ccc(C(F)(F)F)cc3)cc2)C(=O)Cn2c(SCc3cccc(F)c3F)cc(=O)c3ccccc32)CC1`
Out: 117.9

In: Please report the recorded % Inhibition for `NC1=NC2(CCCCC2)N(OCCCCCCc2ccccc2)C(N)=N1` .
Out: 26.32

In: # query: % Inhibition of entry `O=C(NCCCN1CCN(c2cccc(Cl)c2)CC1)c1ccc(-c2nc3cc(Cl)c(Cl)cc3[nH]2)c(F)c1`
Out: -21.33

====

tested on: P. falciparum stage V gametocytes; parameters: BacTiter-Glo ATP luminescence viability of purified stage V gametocytes in 384-well plates, per cent inhibition versus DMSO; settings: 48 h, 5 µM; inhibitor
Screen size: about 13,000 compounds; about 3,200 (25%) showed an effect of 50% or more. The list shows a part of the results.
Please provide measured % Inhibition for the entries that follow.
Provide a numeric answer, followed by its unit.

In: Dear colleague, I am looking for the recorded % Inhibition of the following compound: `CC(C)CNc1nc(N)nc2ccc3c(ccn3CC(C)C)c12`
Out: 87.39%

In: What value of % Inhibition has been recorded for this entry: `CCCCCCCCc1[nH]c(C)c(Br)c(=O)c1Br`
Out: 43.41%

In: Item `CC(=O)Nc1nc(N)c2c(ccc3c2ccn3CC(C)C)n1` has what recorded % Inhibition?
Out: 0.8169%

In: For `Cc1ccc(NC(=O)c2cccc(CN3CCCN(Cc4cccc(O)c4)CC3)c2)cc1C` , what is its reported % Inhibition?
Out: 91.29%

In: Entry `O=C(NCCN1CCCCC1)c1cccc(Nc2nccc(Nc3ccc(Oc4ccccc4)cc3)n2)c1` has what % Inhibition?
Out: 19.36%

In: Endpoint output: % Inhibition of `CCCCCCn1ccc2c3c(N)nc(N)nc3ccc21` . Value?
Out: 106.4%

In: Given `Cc1cc(N2Cc3ccccc3C2)nc(Nc2cccc(C#N)c2)n1` , state its recorded % Inhibition.
Out: -14.79%

In: Name the reported % Inhibition value associated with the compound `COc1ccc2nc3cc(Cl)ccc3c(NCCc3ccccc3)c2c1.Cl`
Out: -3.627%

In: I am curious: what % Inhibition value has been reported for `Cc1ccc(S(C)(=O)=O)cc1/C=C/C(=O)O` ?
Out: 3.947%

In: For CCCC(CC)n1ccc2c3c(N)nc(N)nc3ccc21 (centres unmarked) , what is its reported % Inhibition?
Out: 17.27%

In: For the compound `Nc1cccc(CNCc2cccc(-c3ccc(-c4nc5ccccc5[nH]4)s3)c2)c1.O=C(O)C(F)(F)F` , what % Inhibition is on record?
Out: -42.76%

In: Item `C=C1C(C(=O)OCC)=CN(CC)c2cc(O[C@@H]3CCN(C(=O)OC(C)(C)C)C3)ccc21` has what recorded % Inhibition?
Out: 15.51%

In: Would you kindly share the measured % Inhibition for `CCOC(=O)c1ccc(NC(=O)Nc2cccc(-c3cccc(-c4nc5ccc(F)cc5[nH]4)c3)c2)cc1` ?
Out: -1.066%

In: Requested field: % Inhibition. Item: NC(=O)C1Cc2ccccc2CN1CC(=O)Nc1ccccc1Sc1ccccc1 (centres unmarked)
Out: 48.06%

In: GET /values?readout=% Inhibition&item= `O=C(c1cc(C(=O)NCc2ccc(Cl)cc2)c(=O)n(Cc2ccc(Cl)cc2)c1)c1cc(F)ccc1O`
Out: -12.34%

In: Query (compound): `c1ccc(CNCc2cccc(-c3csc(-c4nc5ccccc5[nH]4)c3)c2)cc1` ; field requested: % Inhibition
Out: -5.062%

In: Name the recorded % Inhibition for COc1ccccc1C(C)NCC(=O)Nc1ccccc1Sc1ccccc1 (centres unmarked) .
Out: -2.069%

In: Entry under review: `Nc1nc(N)c2c(ccc3nn(C4CCCC4)cc32)n1` . Reported % Inhibition?
Out: -20%

In: Any idea what % Inhibition was measured for `CCN1CCN(CCCNc2c3ccc(Cl)cc3nc3ccc(O)cc23)CC1` ?
Out: 70.77%

In: Requested read-out: % Inhibition. Entry: `CC1(C)N=C(N)N=C(N)N1OCCCOc1cccc(Cl)c1`
Out: 16.24%

====

test system: P. falciparum stage V gametocytes; design: BacTiter-Glo ATP luminescence viability of purified stage V gametocytes in 384-well plates, per cent inhibition versus DMSO; conditions: 48 h, 5 µM; inhibitor
Out of some 13,000 compounds screened, about 3,200 (25%) showed an effect of 50% or more. Some of the results follow.
Would you mind telling me the reported % Inhibition of each entry?
Write the number in % without appending the unit.

In: # get_value(readout='% Inhibition', item= `O=C(Nc1ccc(-c2nc3ccccc3[nH]2)cc1)C1CCN(Cc2ccccc2)CC1` )
Out: -65.72

In: Requested field: % Inhibition. Item: `NCCCN(Cc1ccc(Cl)c(Cl)c1)C(=O)Nc1ccc(Cl)c(Cl)c1`
Out: 96.81

In: # lookup: % Inhibition of `O=C(Nc1ccc(Oc2ccccc2)cc1)N(CCN1CCCC1)Cc1ccc(-c2ccc(CN3CCNCC3)cc2)cc1`
Out: 103.6

In: Can you share its % Inhibition? I mean this compound: `CS(=O)(=O)c1ccc(Nc2ncc(-c3ccc(S(C)(=O)=O)cc3)c(OCC(F)(F)F)n2)cc1`
Out: 24.49

In: Which % Inhibition reading was recorded for the compound `COc1ccc(NC(=O)Nc2cccc(-c3ccncc3)c2)cc1N1CCN(C)CC1` ?
Out: 12.5

In: What measured % Inhibition goes with `O=C(Nc1cccc(-c2cccc(-c3nc4ccc(F)cc4[nH]3)c2)c1)c1ccncc1` ?
Out: 85.81
